# measurement-target: PD-L1 (Homo sapiens, UniProt Q9NZQ7)
# Sequence (Q9NZQ7 19-290): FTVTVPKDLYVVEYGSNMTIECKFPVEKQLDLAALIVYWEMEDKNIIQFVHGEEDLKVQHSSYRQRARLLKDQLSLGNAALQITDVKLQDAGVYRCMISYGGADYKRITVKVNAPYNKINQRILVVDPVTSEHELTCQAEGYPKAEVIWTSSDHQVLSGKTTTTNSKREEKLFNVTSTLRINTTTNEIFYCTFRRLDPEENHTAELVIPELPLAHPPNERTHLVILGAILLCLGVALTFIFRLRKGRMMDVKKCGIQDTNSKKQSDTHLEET
# protocol-summary: Binding of candidate nanobodies to human PD-L1 on HEK293T/hPD-L1 cells, flow cytometry
# Set-up: expressed in transfected cells; host or cells: HEK293T
# condition-parameters: nanobody 10 μg/ml, FIG. 1
measure: binding activity to human PD-L1

* h_Nb26: anti-human PD-L1 nanobody, VHH SEQ ID NO: 36 (protein, h_Nb26 VHH) VHH: DVQLQESGGGLVQPGGSLRLSCAAPGSIFRINAMGWYRQAPGKQRELVAAITSGGSTNYADSVQGRFTISRDNAKNTVYLQMNSLKPEDTAVYYCNVERRRPPHYYSDYDFDWGQGTQVTVSS | good binding activity
* h_Nb2: anti-human PD-L1 nanobody, VHH SEQ ID NO: 5 (protein, h_Nb2 VHH) VHH: DVQLQESGGGLVQPGGSLRLSCAASGFTFGDRWMYWLRQAPGKGLEWVSSINPAGRSTYYADSVKGRFTISRDNAKNTLYLQMNSLKSEDTAVYYCTKDPGGYQKGQGTQVTVSS | good binding activity
* h_Nb13: anti-human PD-L1 nanobody, VHH SEQ ID NO: 28 (protein, h_Nb13 VHH) VHH: DVQLQESGGGLVQPGGSLRLSCAASGSIFSINAMGWYRQAPGKSRELVAAITSGGSTNYADSVKGRFTISRDTAKNTVYLLMNSLEPEDTAVYYCNVERRRPPHYLSEYDFDWGQGTQVTVSS | good binding activity
